Parameter log10(Ki), tested on Mu-type opioid receptor (Mus musculus), listed per item.
Sequence (P42866 whole entry): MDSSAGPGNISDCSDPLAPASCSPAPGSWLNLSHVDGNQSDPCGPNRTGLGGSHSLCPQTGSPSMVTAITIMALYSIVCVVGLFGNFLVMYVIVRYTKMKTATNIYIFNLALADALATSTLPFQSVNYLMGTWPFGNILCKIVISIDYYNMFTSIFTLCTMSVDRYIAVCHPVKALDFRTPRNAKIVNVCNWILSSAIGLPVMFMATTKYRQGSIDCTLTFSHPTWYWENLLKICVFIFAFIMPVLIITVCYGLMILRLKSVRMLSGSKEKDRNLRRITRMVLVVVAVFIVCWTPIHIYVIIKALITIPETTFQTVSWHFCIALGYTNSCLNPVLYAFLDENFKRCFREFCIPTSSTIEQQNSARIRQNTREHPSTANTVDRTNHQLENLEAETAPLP
Annotation: log10 of Ki, nM basis.

As a guide, the following entries are already answered.
- smi: "CCNC(=O)c1ccc(C(=C2CC3CCC(C2)N3Cc2ccoc2)c2ccc(CO)cc2)cc1"
  log10(Ki): 1.28
- smi: "CCNC(=O)c1ccc(C(=C2CC3CCC(C2)N3Cc2ccoc2)c2nnn[nH]2)cc1"
  log10(Ki): 1.92
- smi: "CCNC(=O)c1ccc(C(=C2CC3CCC(C2)N3Cc2ccoc2)c2cccc(CO)c2)cc1"
  log10(Ki): -0.09
- smi: "CCNC(=O)c1ccc(/C(=C2/C[C@H]3CC[C@@H](C2)N3Cc2ccccn2)c2ccc(C(=O)N(C)C)cc2)cc1"
  log10(Ki): 2.00

Look up log10(Ki) for the entries below, preserving their order.
1. CCNC(=O)c1ccc(/C(=C2/C[C@H]3CC[C@@H](C2)N3Cc2ccsc2)c2ccc(CO)cc2)cc1
2. CCNC(=O)c1ccc(/C(Br)=C2/C[C@H]3CC[C@@H](C2)N3Cc2ccoc2)cc1
3. CCNC(=O)c1ccc(/C(=C2\C[C@H]3CC[C@@H](C2)N3Cc2ccsc2)c2cccc(-c3nn[nH]n3)c2)cc1

Result block:
1: 1.90; 2: 1.59; 3: 1.08

Data point: CCNC(=O)c1ccc(C(=C2CC3CCC(C2)N3Cc2ccoc2)c2ccc(S(N)(=O)=O)cc2)cc1 ; log10(Ki) = 1.70
